# TEST NAME: MRT in Wistar Han rat at 0.05 mg/kg, iv administered using cassette dosing by LC-MS/MS analysis
# Type: ADME, organism-based
# CONDITIONS: in vivo
VALUE TYPE: MRT (h)
Record the value in h, omitting the unit from your answer.

Examples with answers:
O=C(Nc1ccc(C2(C(=O)Nc3ccc(F)cc3)COC2)nc1)c1cccc(Cl)c1 : 3.2
CCCNC(=O)C1(c2ccc(NC(=O)c3cccc(Cl)c3)cc2)CCC1 : 0.7
O=C(Nc1ccc([C@]2(C(=O)Nc3ccc(F)cc3)C[C@@H](O)C2)cc1)c1cccc(Cl)c1 : 3.2
O=C(Nc1ccc(C2(C(=O)Nc3ccc(F)cc3)CCC2)cc1)c1cccc(Cl)c1 : 4.3

The record that follows has no MRT shown yet.
Qu. Give MRT for the following molecule: `O=C(Nc1ccc(C2(C(=O)Nc3ccc(F)cc3)COC2)cc1)c1cccc(Cl)c1`
Ans. 4.8
